Tgt: Recombinant human TRKC (Homo sapiens (Human), UniProt Q16288)
Sequence (Q16288 32-839): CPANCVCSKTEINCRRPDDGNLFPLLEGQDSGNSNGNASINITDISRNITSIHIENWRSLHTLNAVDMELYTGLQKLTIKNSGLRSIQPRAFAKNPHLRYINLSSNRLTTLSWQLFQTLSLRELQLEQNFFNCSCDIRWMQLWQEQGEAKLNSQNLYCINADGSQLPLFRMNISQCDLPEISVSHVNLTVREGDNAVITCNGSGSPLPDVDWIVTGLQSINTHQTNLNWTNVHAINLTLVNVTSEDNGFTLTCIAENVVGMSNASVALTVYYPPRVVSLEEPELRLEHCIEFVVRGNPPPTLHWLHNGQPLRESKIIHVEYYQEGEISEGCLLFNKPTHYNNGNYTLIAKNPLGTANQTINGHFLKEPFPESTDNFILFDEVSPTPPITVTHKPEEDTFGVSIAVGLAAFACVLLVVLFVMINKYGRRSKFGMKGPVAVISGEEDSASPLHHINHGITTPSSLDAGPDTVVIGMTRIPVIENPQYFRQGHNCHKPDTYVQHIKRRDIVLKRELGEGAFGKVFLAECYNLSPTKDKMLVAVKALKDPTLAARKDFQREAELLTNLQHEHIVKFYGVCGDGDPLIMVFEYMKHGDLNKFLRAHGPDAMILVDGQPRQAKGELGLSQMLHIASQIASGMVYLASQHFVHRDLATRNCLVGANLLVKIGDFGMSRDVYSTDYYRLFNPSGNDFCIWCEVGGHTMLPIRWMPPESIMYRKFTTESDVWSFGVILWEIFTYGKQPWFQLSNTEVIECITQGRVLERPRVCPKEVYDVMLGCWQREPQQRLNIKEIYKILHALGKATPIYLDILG
Experiment Description: In vitro activity test on TRKC kinase (HTRF kinEASE TK)
Format: biochemical
Measurement Conditions: 25.64 μM ATP, 40 min, room temperature
Assay Readout: IC50

> print(dat)
                                   compound  assay.readout  measurement
1  Fc1ccc(F)c([C@H]2C[C@H](F)CN2c2n[nH]c3ncc(-c4nnc(COC(F)(F)F)o4)cc23)c1           IC50       < 1 nM
2  O=C(c1n[nH]c2nccc(N[C@@H]3CCC[C@H]3O)c12)N1C[C@@H](F)C[C@@H]1c1cc(F)ccc1F           IC50       < 1 nM
3  NC(=O)c1cnc2[nH]nc(N3CCC[C@@H]3c3cc(F)ccc3F)c2c1           IC50      < 10 nM
4  CC1(O)CCN(c2cnc(C(=O)Nc3cnc4[nH]nc(N5C[C@@H](F)C[C@@H]5c5cc(F)ccc5F)c4c3)cn2)C1 (stereo partly shown)           IC50      < 10 nM

* * *

Tgt: Recombinant human TRKB (Homo sapiens (Human))
Sequence (Q16620 32-822): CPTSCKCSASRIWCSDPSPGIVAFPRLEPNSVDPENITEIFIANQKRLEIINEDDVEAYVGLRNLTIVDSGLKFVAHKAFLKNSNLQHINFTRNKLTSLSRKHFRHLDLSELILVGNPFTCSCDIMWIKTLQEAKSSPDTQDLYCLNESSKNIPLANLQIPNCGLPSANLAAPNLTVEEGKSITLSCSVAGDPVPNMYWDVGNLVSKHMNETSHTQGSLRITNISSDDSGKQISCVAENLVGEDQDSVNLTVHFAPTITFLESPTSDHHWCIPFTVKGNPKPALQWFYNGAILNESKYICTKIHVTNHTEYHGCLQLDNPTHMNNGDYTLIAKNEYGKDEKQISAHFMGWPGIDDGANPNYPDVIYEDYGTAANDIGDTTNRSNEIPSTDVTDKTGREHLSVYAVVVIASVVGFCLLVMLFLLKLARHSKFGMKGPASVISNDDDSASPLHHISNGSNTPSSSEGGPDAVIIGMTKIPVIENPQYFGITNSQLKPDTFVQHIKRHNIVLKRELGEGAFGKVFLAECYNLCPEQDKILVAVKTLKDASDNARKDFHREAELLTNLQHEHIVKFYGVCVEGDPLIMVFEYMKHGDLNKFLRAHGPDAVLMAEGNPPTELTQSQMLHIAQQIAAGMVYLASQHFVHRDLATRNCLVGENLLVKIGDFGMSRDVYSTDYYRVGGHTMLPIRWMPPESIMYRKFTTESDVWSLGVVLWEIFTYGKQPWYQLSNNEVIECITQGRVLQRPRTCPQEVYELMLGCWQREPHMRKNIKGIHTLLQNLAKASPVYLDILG
Experiment Description: In vitro activity test on TRKB kinase (HTRF kinEASE TK)
Assay type: biochemical
Measurement Conditions: 4.77 μM ATP, 50 min, room temperature
Listed here are compounds together with their documented IC50.
Assay Readout: IC50

> print(dat)
                                    compound  measurement
 1  CNC(=O)CC1(O)CCN(C(=O)Nc2cnc3[nH]nc(N4CCC[C@@H]4c4cc(F)ccc4F)c3c2)C1 (stereo partly drawn)     < 500 nM
 2  COCc1nnc(-c2cnc3[nH]nc(N4C[C@@H](F)C[C@@H]4c4cc(F)ccc4F)c3c2)o1       < 1 nM
 3  O=C(Nc1cnc2[nH]nc(N3CCC[C@@H]3c3cc(F)ccc3F)c2c1)N1CC[C@H](O)C1     < 500 nM
 4  CN(C)C(=O)c1cnc2[nH]nc(N3C[C@@H](F)C[C@@H]3c3cc(F)ccc3F)c2c1     < 500 nM
 5  Fc1ccc(F)c([C@H]2C[C@H](F)CN2c2n[nH]c3ncc(-c4cnn(C5CCNCC5)c4)cc23)c1       < 1 nM
 6  Fc1ccc(F)c([C@H]2C[C@H](F)CN2c2n[nH]c3ncc(-c4cnn(CC(F)(F)F)c4)cc23)c1       < 1 nM
 7  NNC(=O)c1cnc2[nH]nc(N3C[C@@H](F)C[C@@H]3c3cc(F)ccc3F)c2c1       < 1 nM
 8  CN(C)CCn1cc(-c2cnc3[nH]nc(N4C[C@@H](F)C[C@@H]4c4cc(F)ccc4F)c3c2)cn1       < 1 nM
 9  Fc1ccc(F)c([C@H]2C[C@H](F)CN2c2n[nH]c3ncc(-c4nn[nH]n4)cc23)c1       < 1 nM
10  O=C(Nc1cnc2[nH]nc(N3CCC[C@@H]3c3cc(F)ccc3F)c2c1)c1ccc(N2CC[C@H](O)C2)nc1     < 100 nM
11  O=C(NCCCO)c1cnc2[nH]nc(N3CCC[C@@H]3c3cc(F)ccc3F)c2c1      < 10 nM
12  Fc1ccc(F)c([C@H]2C[C@H](F)CN2c2n[nH]c3ncc(-c4cnn(C5CCOCC5)c4)cc23)c1       < 1 nM
